# testProtocol: NCI Yeast Anticancer Drug Screen. Data for the rad14 strain (AID 159);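 also: 0% = growth of vehicle-treated control cultures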
# runParameters: S. cerevisiae rad14 strain growth inhibition; at 1.2 µM; stronger effect = higher value
The panel holds about 79,000 compounds, 15% with a hit somewhere; the sample as a whole holds those more often.
Here the recorded growth inhibition is given for each entry.

compound	growth inhibition / %
COCCCN(Cc1cc(OC)c(OC)c(OC)c1)C(=S)Nc1cccc(Cl)c1	-28
Oc1ccc(C=Nc2ccccc2O)cc1	17
CC1C(C#N)(C#N)C(C#N)=C(N)C1(Cl)[N+](=O)[O-] (stereo not given)	1
N#CSC1CCCCNC1=O (stereo not given)	2
O=NN(CCCl)C(=O)NCCCl	-2
NNC(=S)Nc1cccc2ccccc12	-14
CC1=CC2C(C(C)C)CC1C1C(=O)OC(=O)C21 (stereo not given)	-2
CCOP1(=O)C=C(Sc2ccc([N+](=O)[O-])cc2[N+](=O)[O-])C(C)(C)O1 (stereo not given)	1
CC1(C)C(C=O)=CCC1CC(N)=O (stereo not given)	-3
S=c1cn[nH]c2ccc(Br)cc12	2
O=C1OC2C(O)COC2(OCc2c[nH]c3ccccc23)C1O (stereo not given) (tested in a mixture with another compound)	-2
CC(=O)N1C(=O)/C(=C\C(=O)c2ccc([N+](=O)[O-])cc2)c2ccccc21	-8
OB(O)c1ccccc1C#Cc1ccccc1B(O)O	-1
Cc1cc(O)c2c(c1)C(=O)C=C(Br)C2=O	37
COC(=O)c1oc([N+](=O)[O-])c(Cl)c1Cl	99
O=c1ccc(N=Nc2ccccc2)ccc1O	1
Cc1c2cc[n+](CCN3CCCCC3)cc2c(C)c2c1[nH]c1ccc(O)cc12	1
CN(C)c1ccc(/C=C/c2ccnc3ccccc23)cc1N	-7
CCN(CC)CC(O)c1cc(-c2ccc(Cl)cc2)nc2c(-c3ccccc3)cccc12 (stereo not given)	-2
[N-]=[N+]=NC(c1ccccc1)(c1ccccc1)c1ccccc1	-9
CCC(=O)N(c1ccccc1)C(C)CN1CCC(O)(c2cccc(C(F)(F)F)c2)CC1 (stereo not given)	6
O=S(=O)(N/N=C/c1cccc(Cl)c1)c1ccccc1	-7
CN(CC(=O)O)c1ccc(/C=C/c2ccnc3ccccc23)cc1	-3
CC(=O)O[C@H]1C(=O)[C@@]2(C)[C@H]([C@H](OC(=O)c3ccccc3)[C@]3(O)C[C@H](OC(=O)[C@H](O)[C@@H](NC(=O)c4ccccc4)c4ccccc4)C(C)=C1C3(C)C)[C@]1(OC(C)=O)CO[C@@H]1C[C@@H]2O	-1
CCN(CC)CCNC(=O)c1nn(-c2ccc(Cl)cc2)c2c1CCc1cc(OC)ccc1-2	-1
Cc1ccccc1NC(=O)Cc1csc(N/N=C2\NC(=O)/C(=C/c3cccc([N+](=O)[O-])c3)S2)n1	4
C/C(=N\NC(=S)NNC(=S)N(C)c1ccccc1)c1ccccn1	-6
O=C1C=CC(=O)N1c1ccc(N2C(=O)C=CC2=O)cc1	17
O=[N+]([O-])c1cccc2nc3ccccc3c(NCCc3cccc[n+]3[O-])c12	12
CCCCC1=NNC(=O)C1	6
CC(=O)N1C(=O)/C(=C\C(=O)c2ccc(Cl)cc2)c2ccccc21	-16
COc1ccc2c(c1)[nH]c1c(/C=C/c3ccccc3)nccc12	-29
C(=N/NC1=NCCN1)/c1c2ccccc2c(/C=N\NC2=NCCN2)c2ccccc12	-9
Cc1cc(C(C)(C)CC(C)(C)C)cc(O)c1O	-7
O=S(=O)(c1cc(Cl)ccc1O)c1cc(Cl)ccc1O	9
Clc1cc(Cc2ccc(N=C/C=C/c3ccccc3)c(Cl)c2)ccc1N=C/C=C\c1ccccc1	-8
O=C(Nc1cccc(C(F)(F)F)c1)Oc1ccc(Cl)cc1C(=O)c1ccccc1	-3
Cc1ccc(S(=O)(=O)Nc2ccc3c(c2)C(O)c2ccccc2-3)cc1 (stereo not given)	-2
O=C(/C=C/c1cccc2ccccc12)c1ccc(Cl)cc1	-28
O=C(O)c1ccccc1.[Ag]	91
COC(=O)c1n[nH]c(C)c1N=NN(C)CCC#N	1
CCCCCC#CCOC(=O)C(=[N+]=[N-])P(=O)(c1ccccc1)c1ccccc1	-11
O=C(/C=C\c1ccc([N+](=O)[O-])o1)Nc1ccc(Cl)cc1	21
NP1(Oc2ccc(F)cc2)=NP(N)(Oc2ccc(F)cc2)=NP(Oc2ccc(F)cc2)(Oc2ccc(F)cc2)=N1 (stereo not given)	-2
CCCc1[nH]nc(C(N)=O)c1N=NN(C)C	0

----------
Quick list: growth inhibition per entry.
# testProtocol: NCI Yeast Anticancer Drug Screen. Data for the sgs1 strain (AID 173);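 also: 0% = growth of vehicle-only control cultures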
# runParameters: S. cerevisiae sgs1 mutant, at 11.0 µM, stronger effect = higher value
The panel holds about 79,000 compounds, 15% with a hit somewhere; the sample as a whole holds those more often.
measuredMetric: growth inhibition (%)

compound	unitsText	quantitativeResult
COc1cc2c(cc1C[N+](C)(C)CSc1ccccc1)-c1ccccc1CC2	%	36
Clc1cc(-c2ccccc2)nc2ccccc12	%	-9
O=C1c2cccc3cc([N+](=O)[O-])cc(c23)C(=O)N1CCN1CCCC1	%	2
COc1cc([C@@H]2c3cc4c(cc3[C@@H](OC3OC5COC(C)OC5C(O)C3O)[C@H]3COC(=O)[C@H]23)OCO4)cc(OC)c1O (stereo partly drawn)	%	1
COc1ccc(N=N/C(=N\NC(=O)c2cc(Br)ccc2O)c2ccc(N(CCC#N)CCC#N)cc2OC)cc1	%	33
O=C1C=CC(=O)N1c1ccc(N2C(=O)C=CC2=O)cc1	%	99
Nc1nc(N)c2c(n1)CCC(S(=O)(=O)c1ccc3ccccc3c1)C2 (stereo not drawn)	%	55
COC(=O)CSc1nnc(CSc2ccc(Cl)cc2)n1-c1ccccc1	%	2
CCCCCCCCCCCc1nc(N)n[nH]1	%	21
S=C1SCN(CCc2ccccc2)CN1CCc1ccccc1	%	31
O=c1[nH]cc(/C=N\Nc2ccccc2)c(=O)[nH]1	%	41
Cc1nc2c(ncn2CCO)c(=O)[nH]1	%	9
O=C1CC(=O)N(C2CCCCC2)C(=O)N1c1ccccc1S(=O)(=O)Oc1ccccc1	%	-1
CCc1[nH]nc(C(N)=O)c1N=NN(C)C	%	15
COc1ccc(C(C#N)=C2C=CC(=NO)C=C2)cc1	%	87
Nc1cc(S(N)(=O)=O)ccc1SSc1ccc(S(N)(=O)=O)cc1N	%	26
Cc1cc(C)c(N2C(=O)CC(Sc3ccccc3N)C2=O)c(C)c1 (stereo not drawn)	%	-34
Cc1ccc(S(=O)(=O)N(C)c2ccc(Cl)cc2C2=NCCc3ccccc32)cc1	%	-11
Cc1cc(C(C)(C)CC(C)(C)C)cc(O)c1O	%	82
OCCN(CCO)c1ccc2c(c1)Cc1ccccc1-2	%	13
O=[N+]([O-])c1c(/C=N/Nc2ccccc2)oc(-c2ccc3c(c2)OCO3)c1-c1ccc2c(c1)OCO2	%	7
Cc1cc(O)c2c(c1)C(=O)C=C(Br)C2=O	%	66
NNC(=S)Nc1cccc(Cl)c1	%	-8

----------
# testProtocol: NCI Yeast Anticancer Drug Screen. Data for the rad50 strain (AID 155);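 also: 0% = growth of vehicle-only cultures of the same strain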
# runParameters: S. cerevisiae rad50 strain growth inhibition; at 5.0 µM (retest, dose inferred, filed as 0.5); stronger effect = higher value
About 79,000 compounds went through this panel and 15% of them were active in at least one assay; those are over-represented in the sample as a whole. Calls of active or inactive are those of the source. No stated cut-off is given here; in the data, active means growth inhibition above about 70%; inactive means the rest.
In this section, each of the molecules is paired with its reported growth inhibition.
measuredMetric: growth inhibition

molecule	result
COc1ccc(S(=O)(=O)N/N=C\c2cc([N+](=O)[O-])cc(I)c2O)c(OC)c1OC	10% (inactive)
S=C1SCN(CCc2ccccc2)CN1CCc1ccccc1	7% (inactive)
Nc1ccc(CCl)cc1Cc1c(O)ccc2ccccc12	6% (inactive)
c1ccc2c(c1)Cn1c-2nc2ccccc21	49% (inactive)
Cc1ccc(S(=O)(=O)N(C)c2ccc(Cl)cc2C2=NCCc3ccccc32)cc1	47% (inactive)
O=S(=O)(c1cc(Cl)ccc1O)c1cc(Cl)ccc1O	52% (inactive)
CCCCC1=NNC(=O)C1	45% (inactive)
Cc1nc2c(ncn2CCO)c(=O)[nH]1	29% (inactive)
CC(=O)C1=C(C)O/C(=C/c2cccc(Cl)c2)C1=O	-1% (inactive)
COC(=O)c1oc([N+](=O)[O-])c(Cl)c1Cl	21% (inactive)
Cc1ccc(CNc2ccc(Br)cc2)cc1	61% (inactive)
CCc1nc(N)nc(N)c1-c1ccc(NCCCCCCN)c([N+](=O)[O-])c1	-16% (inactive)
c1ccc2c(c1)ccc1c3ccncc3ccc21	90% (active)
CC(=O)c1cc2c(Cl)cc(Cl)cc2oc1=O	30% (inactive)
S=c1cn[nH]c2ccc(Br)cc12	-152% (inactive)
O=C(/C=C/c1cccc(Br)c1)c1ccc(Cl)cc1	35% (inactive)
CC1=CCCC2C1(C)CCC(C)C2(C)Cc1cc(O)ccc1O (stereo not given)	22% (inactive)
NNC(=S)Nc1cccc2ccccc12	45% (inactive)
O=[N+]([O-])c1c(/C=N/Nc2ccccc2)oc(-c2ccc3c(c2)OCO3)c1-c1ccc2c(c1)OCO2	88% (active)
S=c1[nH]c2c(Cl)c(Cl)c(Cl)c(Cl)c2[nH]1	33% (inactive)
CCc1[nH]nc(C(N)=O)c1N=NN(C)C	-118% (inactive)
O=[N+]([O-])c1cc(S(=O)(=O)Nc2ccccc2)ccc1Cl	34% (inactive)
CCN1/C(=C/c2ccc3ccccc3[n+]2CC)C=Cc2ccccc21	99% (active)
CC[C@@]1(OC(=O)CCC(=O)O)C(=O)OCc2c1cc1n(c2=O)Cc2cc3ccccc3nc2-1	85% (active)
Oc1ccc(C=Nc2ccccc2O)cc1	13% (inactive)

Where do these numbers come from? They come from PubChem BioAssay (NCI).
